Source: the pKa sets of Baltruschat and Czodrowski (2020)

# statedConditions: basic group
Tag: met if measured pKa is not below 9, not met if it is.

Say whether CNCl shows pKa of 9 or more.
not met

Hi team, for CCN(CC)[C@H]1CCC[C@@H]1N(C)C , is the recorded pKa at or above 9?
met

Exam item: decide whether the reported pKa for CN(C)c1ccccc1C(=O)[O-] is at least 9.
not met

Reported pKa at or above 9? Cc1ccc(S(=O)(=O)[N-]CCC(=N)N(C)C)cc1
met

I'd appreciate it if you could say whether Oc1ccccc1CN1CCCCC1 has pKa at least equal to 9.
not met

I'd appreciate it if you could say whether CC(=O)Nc1ccc(C2CCC[NH+]2C)cn1 (configuration not stated) has pKa at least equal to 9.
not met

Item C#C[C@]1(O)C[C@@H](C)N(C)[C@@H]2CCCC[C@H]21 with pKa of 9 or above?
met

Determine whether this compound has pKa no lower than 9: CC(C)CNc1ccccc1
not met

Has c1ccc(-c2cc[nH+]cc2)nc1 a recorded pKa greater than or equal to 9?
not met

API: above_or_equal(metric=pKa, cutoff=9) for item Nc1n[nH]c2ccccc12
not met

Check if pKa >= 9 (inclusive). Item: CCCN(C)N(C)CCC
not met

Quick check: does NCC/C=C/C(=O)[O-] have pKa greater than or equal to 9?
met

Could you please find out whether Nc1cccc2nn([C@@H]3C[C@@H](O)[C@H](CO)O3)nc12 has pKa that meets 9 or exceeds it?
not met

hey, is pKa for this one >= 9? CCN(CCC#N)CCC#N
not met

Confirm if pKa reported for the compound OCCNc1nc(NCCO)nc(NCCO)n1 is 9 or above.
not met

For this compound, is measured pKa 9 or higher? Cc1nc2ccccc2n(C)c1=O
not met

In plain terms: is recorded pKa at least 9 for CN(C)c1nc2cc3c(cc2[nH]1)CCCC3 ?
not met

Given C1CCN(CCC[NH+]2CCCC2)C1 , state whether its pKa is at least 9.
not met

Threshold query (pKa >= 9) on CC(C)(S)[C@@H](C(=O)[O-])n1ccnc1Cc1ccccc1
not met

Textbook exercise: given the entry Nc1ccc(S(=O)(=O)Nc2cccc[nH+]2)cc1 , state whether its pKa is greater than or equal to 9.
not met

Could you please find out whether CNC(C)Cc1ccccc1 (configuration not stated) has pKa that meets 9 or exceeds it?
met

Reported pKa reaches at least 9 for CC[NH+](CC)CCNc1ccnc2ccccc12 ?
not met

Is it the case that [O-]c1ccc([O-])nn1 has pKa reaching or exceeding 9?
met

# bool: pKa of c1cnc2ncncc2n1 >= 9
not met

Hello, I need to know if NCCCCCN has measured pKa not below 9. Thanks!
met

Would you say CN(O)Cc1ccccc1 shows pKa at minimum 9?
not met

Would you say C=CC(CC(C)(C)CC(C)(C)C)c1ccc2cccnc2c1O (configuration not stated) shows pKa at minimum 9?
not met

Please tell me: is the compound COc1ccc([N+](=O)[O-])c(CN)c1 at or over 9 in terms of pKa?
not met

Determine whether measured pKa meets or exceeds 9 for CN(C)c1ccccc1
not met

Has C[C@H](N)CCC(=O)[O-] a recorded pKa greater than or equal to 9?
met

State whether the measured pKa reaches 9, counting equality as reaching it, for CN(C)c1cccc(Cl)c1
not met

Does the reported pKa for CCC(O)CN(CCO)C(C)(C)C (configuration not stated) fall at or above the 9 mark?
met

Form field: pKa at least 9? Entry: CC(C)(C)c1cc(N)cc(C(C)(C)C)c1
not met

Say whether CCCCCCN(CC(O)CC)CC(O)CC (configuration not stated) shows pKa of 9 or more.
not met

Check if pKa >= 9 (inclusive). Item: CN(CC[NH3+])CC[NH+](C)C
not met

Is the recorded value of pKa equal to or greater than 9 for this compound? c1ccc(CN(CC2=NCCN2)c2ccccc2)cc1
met

Given c1ccc(-c2ccc(NCCN3CCOCC3)nn2)cc1 , state whether its pKa is at least 9.
not met

Check the entry O=C(O)c1cccc(O)c1 : does pKa equal or exceed 9?
not met

Hi team, for COc1ccccn1 , is the recorded pKa at or above 9?
not met

Answer whether pKa of c1nc[nH]n1 is greater than or equal to 9.
not met

Decide: is the reported value of pKa for Cn1ccc(=NC(=O)c2ccccc2)cc1 equal to or greater than 9?
met

Can Clc1ccc(CNc2ncnc3[nH]ncc23)cc1 be said to have pKa at or above 9?
not met

Could you tell me if the measured pKa of C[Se](C)=O reaches 9 or more?
not met

Tell me whether pKa is at least 9 here: CC[NH+](CC)CCCCC(C)Nc1c2ccc(Cl)cc2nc2ccc(OC)cc12 (configuration not stated)
not met

Determine whether this compound has pKa no lower than 9: CC(C)NC[Si](C)(C)C
met

Tell me whether pKa is at least 9 here: NCC[n+]1cc(Br)c2ccccc2c1
not met

Reported pKa at or above 9? CC[NH+](CC)CCCCCCCC(C)Nc1c2ccc(Cl)cc2nc2ccc(OC)cc12 (configuration not stated)
not met

State whether the measured pKa reaches 9, counting equality as reaching it, for CCOC(=O)c1ccc(N)cc1
not met

Does Cn1cnc2cc(O)ccc21 have a reported pKa of at least 9?
not met

Quick check: does Cc1ccc(N(C)CO)cc1 have pKa greater than or equal to 9?
not met

Please check the record CN(C)c1ccc2cc3c(ccc4ccccc43)nc2c1 and state if its pKa is at or above 9.
not met

Please check the record O=C(/C=C1/C=CC=CN1)c1ccccc1 and state if its pKa is at or above 9.
not met

Check the entry Cc1ncc2nccnc2n1 : does pKa equal or exceed 9?
not met

pKa >= 9 for CCNc1nc(NCC)nc(NCC)n1 ?
not met

pKa >= 9 for CCOc1ccc2nc(/C=C/C=C/c3ccccc3)cc(N)c2c1 ?
met

###

Consider the following molecules; for each one, report its pKa.
# statedConditions: acidic group
Would you mind answering with just the numeric figure?

# lookup: pKa of C[Si](C)(C)CC(=O)O
5.22

// pKa lookup, key: N#Cc1c(-c2nc3ccccc3s2)c(=O)oc2cc(O)ccc12
6.38

Fill in: pKa of C[NH+](C)Cc1cc(Cl)cc(C[NH+](C)C)c1O is ___
5.2

Data request, read-out pKa, for Nc1ccc(S(=O)(=O)Nc2ccc(N)cn2)cc1
8.47

Looking for the measured pKa of O=[N+]([O-])c1n[nH]c(-n2cnc(Cl)n2)n1 , can you help?
1.59

Look up pKa for this molecule: C=C(CCCC)C(=O)O
4.8

Reported pKa for CCc1ccc(OC)c(C(=O)NC[C@H]2CCC[NH+]2CC)c1O : what is it?
8.7

###

# statedConditions: basic group
Label rule, in plain words: pKa of 5 and up is Fulfilled, under 5 is Not fulfilled.

Please check the record CC(C)(C(=O)[O-])c1c[nH]c(CO)n1 and state if its pKa is at or above 5.
Fulfilled

Form field: pKa at least 5? Entry: COCCNc1cccc(C)c1
Not fulfilled

Is pKa at least 5? Consider COC(=O)C1=CN2CCC1CC2
Fulfilled

Decide: pKa of CN1C[C@@H](C(=O)[O-])C[C@H]2c3cccc4[nH]cc(c34)C[C@@H]21 >= 5?
Fulfilled

Does CN(C)CC[Se-] have a reported pKa of at least 5?
Fulfilled

Decide: pKa of COc1ccc(OC)c2c1nc(CO)n2C >= 5?
Fulfilled

Please check the record Cc1ccc2c(ccn2C)c1 and state if its pKa is at or above 5.
Not fulfilled

Please indicate if the recorded pKa for C[NH+](C)CCCCCNc1c2ccccc2nc2cccc([N+](=O)[O-])c12 meets or exceeds 5.
Fulfilled

Quick check: does CC(C)(C)c1cc(N)cc(C(C)(C)C)c1[N+](=O)[O-] have pKa greater than or equal to 5?
Not fulfilled

Does CN1C[C@H](C(=O)[O-])C=C2c3cccc4[nH]cc(c34)C[C@@H]21 have a reported pKa of at least 5?
Fulfilled

Check the entry COc1ccc2c(c1O)CN(C)CCc1cc3c(cc1C(=O)C2)OCO3 : does pKa equal or exceed 5?
Fulfilled

Confirm if pKa reported for the molecule c1nc(Cc2c[nH]c(Cc3nc(Cc4cnc[nH]4)c[nH]3)[nH+]2)c[nH]1 is 5 or above.
Fulfilled

Is it the case that CCN(CC)CCCC(C)Nc1ccnc2cc(Br)ccc12 (stereo not given) has pKa reaching or exceeding 5?
Fulfilled

Say whether CCSC(=O)c1ccc(OC)cc1 shows pKa of 5 or more.
Not fulfilled

Form field: pKa at least 5? Entry: [S-]c1cnc2cncnc2n1
Fulfilled

Decide: pKa of CC1=CSC2=NCCCN12 >= 5?
Fulfilled

I'd appreciate it if you could say whether Cc1cc2c(cc1N)Sc1cc(N(C)C)ccc1N2 has pKa at least equal to 5.
Fulfilled

Would you say Cc1cc2nc3ccc(N(C)C)cc3nc2cc1N shows pKa at minimum 5?
Fulfilled

Could you tell me if the measured pKa of CC(=O)C(CCN1CCOCC1)(c1ccccc1)c1ccccc1 reaches 5 or more?
Fulfilled

Is it the case that CCCCCNc1ccccc1 has pKa reaching or exceeding 5?
Fulfilled

hey, is pKa for this one >= 5? COc1ccc2ccccc2n1
Not fulfilled

Evaluate N=C(SCc1ccccc1)c1ccccc1 : pKa at minimum 5?
Not fulfilled

pKa >= 5 for O=C(O)Cc1[nH]c2ccccc2[nH+]1 ?
Not fulfilled

Is reported pKa greater than or equal to 5 here: Cc1cc(N[NH3+])nc2ccccc12
Not fulfilled

Identify whether the reported pKa of the following molecule is 5 or greater: C=CCNCC=C
Fulfilled

In plain terms: is recorded pKa at least 5 for NCc1ccccc1S(N)(=O)=O ?
Fulfilled

Decide: pKa of CCN(CC)CCSCC(C)C >= 5?
Fulfilled

Check this molecule for pKa at or above 5: COc1cc2c(OC)ncnc2c(OC)c1OC
Not fulfilled

Given N#CC(C#N)=NNc1ccccc1C(F)(F)F , state whether its pKa is at least 5.
Not fulfilled

Decide: pKa of C[n+]1c([O-])ccnc1[O-] >= 5?
Fulfilled

Threshold query (pKa >= 5) on C=CCOc1nc(N)nc(N)n1
Not fulfilled

Please check the record CN1CCC2=C(C1)C(c1ccccc1)c1ccccc12 (stereo not given) and state if its pKa is at or above 5.
Fulfilled

Could you tell me if the measured pKa of C#CC(C)(C(C)C)N(C)C(C)C (stereo not given) reaches 5 or more?
Fulfilled

Could you tell me if the measured pKa of O=C(CCCCN1CCOCC1)c1ccccc1 reaches 5 or more?
Fulfilled

# check: pKa of CCC1CN1CC (stereo not given) is greater than or equal to 5
Fulfilled

Does Cn1c(=O)c2c([O-])cnnc2n(C)c1=O have a reported pKa of at least 5?
Fulfilled

Does the reported pKa for Cc1cc(C)c2cccc(C)c2n1 fall at or above the 5 mark?
Not fulfilled

Does the molecule Nc1ccc(S(=O)(=O)Nc2cncnc2)cc1 have recorded pKa that is 5 or more?
Not fulfilled

API: above_or_equal(metric=pKa, cutoff=5) for item Cc1ccccc1NC(=O)CN1CCCCC1
Fulfilled

Is reported pKa greater than or equal to 5 here: CSc1ccc(N)cc1[N+](=O)[O-]
Not fulfilled

Hi, just wondering whether CN1CCC=C(C(=O)[O-])C1 shows pKa of 5 or higher.
Fulfilled

Kindly determine if pKa recorded for CN[C@H]1C[C@@H]1[NH2+]C is above or exactly 5.
Fulfilled

# check: pKa of Cc1ccc(N)c(C)c1 is greater than or equal to 5
Not fulfilled

Dear colleague, could you confirm whether CC(C)NCC(=O)c1ccc([O-])cc1 has pKa at or above 5?
Fulfilled

API: above_or_equal(metric=pKa, cutoff=5) for item Nc1c(Cl)cc([N+](=O)[O-])cc1Cl
Not fulfilled

# check: pKa of Oc1ccc(F)cc1CN1CCOCC1 is greater than or equal to 5
Fulfilled

Hi, just wondering whether COc1cccc(C(=N)c2ccccc2)c1 shows pKa of 5 or higher.
Fulfilled

API: above_or_equal(metric=pKa, cutoff=5) for item Cc1ccn(-c2ccccn2)n1
Not fulfilled

Confirm if pKa reported for the molecule Cc1ccc(-c2cnc(-c3ccc(C)cc3)o2)cc1 is 5 or above.
Not fulfilled

State whether the measured pKa reaches 5, counting equality as reaching it, for NCC(=O)NCCc1c[nH]cn1
Fulfilled

Determine whether this molecule has pKa no lower than 5: Nc1ccncc1
Fulfilled

For this molecule, is measured pKa 5 or higher? COc1ccc(S(=O)(=O)CCN2CCCCC2)c(OC)c1OC
Fulfilled

Has Cc1cccc(NCCS)c1 a recorded pKa greater than or equal to 5?
Not fulfilled

Exam item: decide whether the reported pKa for COc1ccc2nccc(C(O)C3CCCCN3)c2c1 (stereo not given) is at least 5.
Fulfilled

Does pKa meet or surpass 5 for NC(=O)/C=C(\O)c1ccncc1 ?
Fulfilled

Entry CC1=NCCCC1 : is its pKa no less than 5?
Fulfilled

Would you say [NH3+]Cc1nc2ccccc2[nH]1 shows pKa at minimum 5?
Not fulfilled
